B1: scFv; the commonest letter at each place (parent)
chain 1: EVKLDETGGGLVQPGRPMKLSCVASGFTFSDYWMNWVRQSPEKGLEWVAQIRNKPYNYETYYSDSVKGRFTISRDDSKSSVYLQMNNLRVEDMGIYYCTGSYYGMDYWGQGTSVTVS
chain 2: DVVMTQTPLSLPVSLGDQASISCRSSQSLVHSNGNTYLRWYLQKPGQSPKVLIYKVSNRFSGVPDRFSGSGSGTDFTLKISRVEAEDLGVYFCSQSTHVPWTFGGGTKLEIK

variants of: B1; experiment: yeast surface expression (ratio to wild type); higher = more expressed; conditions: format: scFv 4-4-20, heavy + light
Parameter: yeast surface expression

| Mutation label | Recorded measurement |
| --- | --- |
| chain 1 S30D W36R | 2.14 |
| chain 1 G109E | 0.504 |
| chain 1 Y103N G104P | 0.478 |
| chain 1 G109W | 0.217 |
| chain 1 S101Y M105T | 0.44 |
| chain 1 G100Q M105S | 0.521 |
| chain 1 Y103E D106P | 0.413 |
| chain 1 S101Y Y103N D106L | 0.957 |
| chain 1 M105N G109Q | 0.235 |
| chain 1 Y102E G109N | 0.382 |
| chain 1 F29Y M34Q V37M | 0.485 |
| chain 1 S101D D106R W108I | 0.452 |
| chain 1 F29C W36V | 0.635 |
| chain 1 M34K | 0.913 |
| chain 1 F29Q S30Q | 0.966 |
| chain 1 S30A M34Y | 0.977 |
| chain 1 F29S W36Q | 0.549 |
| chain 1 S30E W33K | 0.771 |
| chain 1 M34P W36L | 0.216 |
| chain 1 Y102Q G109D | 0.485 |
| chain 1 M34H N35P | 2.76 |
| chain 1 S30L N35T | 0.699 |
| chain 1 W33N M34F | 0.815 |
| chain 1 G104L W108R | 0.278 |
| chain 1 G100Q Y107L G109E | 0.226 |
| chain 1 T28E M34S | 0.742 |
| chain 1 G104R D106P Y107A | 0.359 |
| chain 1 W33Q N35W | 1.01 |
| chain 1 Y32C V37Q | 0.692 |
| chain 1 D31W | 0.566 |
| chain 1 F29L D31S | 0.743 |
| chain 1 S101H | 0.737 |
| chain 1 D31C W33P | 0.671 |
| chain 1 T28S W33F | 0.903 |
| chain 1 S30F Y32H | 0.679 |
| chain 1 S101E G104S | 0.804 |
| chain 1 D106W Y107G G109L | 0.109 |
| chain 1 S30Q | 1.12 |
| chain 1 Y102H G109P | 0.281 |
| chain 1 G104F D106K | 0.201 |
| chain 1 S30I D31T W36P | 0.928 |
| chain 1 D31A M34L V37G | 0.0111 |
| chain 1 S101V Y103F D106V | 0.283 |
| chain 1 T28D W36Q | 0.456 |
| chain 1 S101M Y103G | 0.868 |
| chain 1 Y102M D106T | 1.07 |
| chain 1 M105N | 0.844 |
| chain 1 S30H W36F | 0.728 |
| chain 1 D31T W33L | 0.518 |
| chain 1 T28H Y32I | 0.92 |
| chain 1 T28N W33M | 1.01 |
| chain 1 W36H V37F | 0.307 |
| chain 1 F29A W33N | 0.741 |
| chain 1 F29S D31Y | 0.752 |
| chain 1 Y102W Y107W | 0.797 |
| chain 1 V37N | 0.62 |
| chain 1 S101G G104Y | 0.901 |
| chain 1 W36T | 0.497 |
| chain 1 F29P V37W | 0.685 |
| chain 1 G100Q S101Q | 0.263 |
| chain 1 Y102H Y107K | 1.05 |
| chain 1 N35C V37M | 0.689 |
| chain 1 W108D G109Y | 0.271 |
| chain 1 Y32C W36R | 0.506 |
| chain 1 M34V | 0.876 |
| chain 1 Y107T G109C | 0.278 |
| chain 1 Y32L W36F | 0.728 |
| chain 1 N35L V37P | 0.67 |
| chain 1 Y102M M105K D106W | 0.527 |
| chain 1 F29K M34Y | 0.801 |
| chain 1 N35M V37Y | 0.798 |
| chain 1 Y102H M105T | 0.972 |
| chain 1 M34F | 0.988 |
| chain 1 S101L | 0.497 |
| chain 1 D31P N35F | 0.944 |
| chain 1 G100T M105W | 0.733 |
| chain 1 S101R Y107L | 0.862 |
| chain 1 Y107G G109V | 0.273 |
| chain 1 S101H W108C | 0.28 |
| chain 1 Y103I M105E | 0.733 |
| chain 1 G100Q D106P | 0.222 |
| chain 1 Y103D M105Y | 1.03 |
| chain 1 S30D W33N | 1.07 |
| chain 1 G104Q D106K | 0.274 |
| chain 1 T28Y F29W | 0.672 |
| chain 1 T28N V37Y | 1.05 |
| chain 1 S101Y Y102P | 0.326 |
| chain 1 F29S N35H | 0.836 |
| chain 1 Y102Q Y103A | 0.994 |
| chain 1 F29M W33M | 0.873 |
| chain 1 F29A W36H | 0.912 |
